Cited source: the supplement of paper PMC9170038

system: MS2 coat protein; assay: apparent KD of MS2 coat protein; designed switch direction (-1 OFF switch, 1 ON switch): 1; higher = weaker reporter binding; details: input ligand: none
reported-metric: apparent KD of MS2 coat protein (nM)
Numbers only; they are read as nM.

Examples with answers:
ordered-residues	measurement-target	apparent KD of MS2 coat protein, nM
CUCAACAACACAGGAUAUCCAGGGAAAAGAACUGGAGAAGGGUGACCAACAUGAGGAUCACCCAUGUGAUAGCUAGGCUGUCUG [Lararariso] (Eterna round: R96, puzzle: Same State NG 1)	MS2 coat protein	1300
CUUUUUCACUAUACAUGAGGAUCACCCAUGUUAUCAUCAUGAGAGGAUAUCGUAAUAGGAUUUUUCGAGAAGGCUCUAAAGUAU [JR_SSNG3_Sub079] (Eterna round: R96, puzzle: Same State NG 3)	MS2 coat protein	45
UGAAUAAUGUUAGGAUAUACAUGAGGAAUCCUCGUAGAAGGAACAUGACAUGAGGAUCACCCAUGUAGCGCUCCGUAGAGCGCA [Mat - Same State NG 1 - JL mod - D49] (Eterna round: R96, puzzle: Same State NG 1)	MS2 coat protein	250
UUGAUGUACUGAGGAUAUCGUGUCGUCUGAUUUGACAUGAGGAUCACCCAUGUGGGAAGUGGUAUCGAGAAGGCAGUUUUCUUA [JR_SSNG2_Sub028] (Eterna round: R96, puzzle: Same State NG 2)	MS2 coat protein	745
UUGUUUUGAAAUUAACAUGAGGAUCACCCAUGUCUUGACACAGAGGAUAUACAUGUUUGUUUGUAGUAGAAGGCUGUUUAUUGU [JR_SSNG3_Sub097] (Eterna round: R96, puzzle: Same State NG 3)	MS2 coat protein	135

What reported apparent KD of MS2 coat protein corresponds to CUGAGCGAUCAAGGAUAUCACGUCGUUUAGACGUGAGAAGGUGAUCCAUACAUGAGGAUCACCCAUGUAUAACAUGAAGCUCAG [SSNG1/8-A3] (Eterna round: R96, puzzle: Same State NG 1) on MS2 coat protein?
1540

What reported apparent KD of MS2 coat protein corresponds to ACAUGAGAGUGAGGAUAUCAUGUACCUACAUGUGACAUGAGGAUCACCCAUGUGGUAAGUAUGACUGAGAAGGCACAGAUAUGU [Equivalance 90 - Jieux - Same State NG 2] (Eterna round: R96, puzzle: Same State NG 2) on MS2 coat protein?
889
